// reported protein stability index per item
Test system: Saccharomyces cerevisiae
Experiment Summary: protein stability index of tFT-peptide fusion (C-terminal peptide) (PSI (0-1 scale)); higher = more stable (slower turnover)
Assay Context: genetic background: wild type; temperature: 30 C
Would you mind answering with just the numeric figure?

> print(dat)
   item.sequence           measured.target  numeric.readout
1   LPGCPPADRPLV  Saccharomyces cerevisiae            0.688

Memo: FGKWSWGECEGS , reported protein stability index: 0.69

Memo: GPGGVGVTSGGK , reported protein stability index: 0.679

Memo: TFSPPLSSPPGP , reported protein stability index: 0.706

====

// reported protein stability index per item
Tested on: Saccharomyces cerevisiae;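 further: PSI is a weighted mean of sequencing reads over stability bins, variants kept only with over 10 reads, mCherry proximal and sfGFP distal, peptide attached via GGGS linker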
Experiment Summary: protein stability index of tFT-peptide fusion (C-terminal peptide) (PSI (0-1 scale)); higher = more stable (slower turnover)
Assay Context: genetic background: wild type; temperature: 30 C

Worked cases, protein stability index given:
> print(dat)
   item.sequence           measured.target  result
1   GVCPPAGDAGGV  Saccharomyces cerevisiae   0.711
2   NTPSKKHDLNRL  Saccharomyces cerevisiae   0.707
3   EGGGGKGRKRRA  Saccharomyces cerevisiae   0.712

Now examine the next entry.
Memo: NNTVRTPKLSIE , reported protein stability index: 0.716
